# assay.procedure: Human Thrombin receptor 1 (PAR-1) antagonistic ability to inhibit SFLLRN-NH2 (2.7 uM)-induced platelet aggregation
Where a SMILES comes first, the peptide text is derived from it. [ ]: non-standard residue; d: D form. The star is where a group is joined. Biotinyl(3aR,4R,6aS) = O=C1N[C@@H]2[C@@H](CS[C@@H]2CCCCC(=O)*)N1; Phe(4-guanidino) = N=C(N)Nc1ccc(C[C@H](N)C(=O)O)cc1; Bpa = N[C@@H](Cc1ccc(C(=O)c2ccccc2)cc1)C(=O)O; X3 = O=C1N[C@@H]2CSC(CCCCC(=O)*)[C@@H]2N1; Phe(4-F) = N[C@@H](Cc1ccc(F)cc1)C(=O)O; X4 = O=C(c1ccccc1)c1ccc(CCC(=O)*)cc1; Orn = NCCC[C@H](N)C(=O)O; X1 = O=C(C=Cc1ccccc1)*; Propionyl = CCC(=O)*
reported.metric: IC50 (µM)

Use the examples below as a reference point.
molecule	measured
N=C(N)NCCC[C@H](NC(=O)[C@H](Cc1ccc(C(=O)c2ccccc2)cc1)NC(=O)[C@H](Cc1ccc(N=C(N)N)cc1)NC(=O)[C@H](Cc1ccc(F)cc1)NC(=O)C=Cc1ccccc1)C(=O)N[C@@H](CCCNC(=O)CCCC[C@H]1SC[C@H]2NC(=O)N[C@H]21)C(=O)O (X1-[Phe(4-F)][Phe(4-guanidino)][Bpa]R[Orn](Biotinyl(3aR,4R,6aS))-OH)	3.4
CCC(=O)NCCC[C@H](NC(=O)[C@H](CCCNC(=N)N)NC(=O)[C@H](Cc1ccc(C(=O)c2ccccc2)cc1)NC(=O)[C@H](Cc1ccc(N=C(N)N)cc1)NC(=O)[C@H](Cc1ccc(F)cc1)NC(=O)C=Cc1ccccc1)C(=O)O (X1-[Phe(4-F)][Phe(4-guanidino)][Bpa]R[Orn](Propionyl)-OH)	3.1
CCC(=O)NCCC[C@H](NC(=O)[C@H](Cc1ccc(C(=O)c2ccccc2)cc1)NC(=O)[C@H](CC(C)C)NC(=O)[C@H](Cc1ccc(N=C(N)N)cc1)NC(=O)[C@H](Cc1ccc(F)cc1)NC(=O)C=Cc1ccccc1)C(=O)O (X1-[Phe(4-F)][Phe(4-guanidino)]L[Bpa][Orn](Propionyl)-OH)	9
CC(C)C[C@H](NC(=O)[C@H](Cc1ccc(N=C(N)N)cc1)NC(=O)[C@H](Cc1ccc(F)cc1)NC(=O)C=Cc1ccccc1)C(=O)N[C@@H](CCCNC(=N)N)C(=O)O (X1-[Phe(4-F)][Phe(4-guanidino)]LR-OH)	0.3
CC(C)C[C@H](NC(=O)[C@H](Cc1ccc(N=C(N)N)cc1)NC(=O)[C@H](Cc1ccc(F)cc1)NC(=O)C=Cc1ccccc1)C(=O)N[C@@H](Cc1ccc(C(=O)c2ccccc2)cc1)C(=O)N[C@@H](CCCNC(=O)CCCCC1SC[C@H]2NC(=O)N[C@@H]12)C(=O)O (stereo partly drawn) (X1-[Phe(4-F)][Phe(4-guanidino)]L[Bpa][Orn](X3)-OH)	9.7
N=C(N)NCCC[C@H](NC(=O)[C@H](Cc1ccc(C(=O)c2ccccc2)cc1)NC(=O)[C@H](Cc1ccc(N=C(N)N)cc1)NC(=O)[C@H](Cc1ccc(F)cc1)NC(=O)C=Cc1ccccc1)C(=O)O (X1-[Phe(4-F)][Phe(4-guanidino)][Bpa]R-OH)	6

I: CC(C)C[C@H](NC(=O)[C@H](Cc1ccc(N=C(N)N)cc1)NC(=O)[C@H](Cc1ccc(F)cc1)NC(=O)C=Cc1ccccc1)C(=O)N[C@@H](Cc1ccc(C(=O)c2ccccc2)cc1)C(=O)O (X1-[Phe(4-F)][Phe(4-guanidino)]L[Bpa]-OH)
II: CC(C)C[C@H](NC(=O)[C@H](Cc1ccc(N=C(N)N)cc1)NC(=O)[C@H](Cc1ccc(F)cc1)NC(=O)CCc1ccc(C(=O)c2ccccc2)cc1)C(=O)N[C@@H](CCCNC(=N)N)C(=O)O (X4-[Phe(4-F)][Phe(4-guanidino)]LR-OH)
Ask | // task: argmin of IC50 over [ I , II ] In your reply, give the label of the chosen option.
Reply | II
